# System: CAKI-1 renal
# protocol: NCI-60 one-dose screen, 48 h (100 = growth as untreated, 0 = no growth, -100 = all killed)
# particulars: 10 µM
The panel holds about 83,000 compounds, 20% with a hit somewhere; the sample as a whole holds those more often.
measured.parameter: growth (%)
Your answer is read as %, so omit the unit and give the number.

Solved cases below.
O=C(O)c1cccc([N+](=O)[O-])c1: 100
COc1ccc(/C(C#N)=C2C=C/C(=N/O)c3ccccc3\2)cc1: 25.5
CC1(C)OC(=O)C(c2ccsc2)C(=O)O1: 100
CC(=O)/C(Cc1ccccc1)=N/O: 100
Cc1cc(N)ccc1-c1ccc(N)cc1C: 94.8

Entry CC(=O)NCc1cc(C)c(C)cc1C under CAKI-1 renal had growth of 98.8

Entry Nc1ccc(N=Nc2ccc(O)cc2)c(N)n1 under CAKI-1 renal had growth of 39.1

Entry Clc1ccc(-c2nnc(-c3cccc4ccccc34)o2)cc1 under CAKI-1 renal had growth of 81.6
